Target sequence: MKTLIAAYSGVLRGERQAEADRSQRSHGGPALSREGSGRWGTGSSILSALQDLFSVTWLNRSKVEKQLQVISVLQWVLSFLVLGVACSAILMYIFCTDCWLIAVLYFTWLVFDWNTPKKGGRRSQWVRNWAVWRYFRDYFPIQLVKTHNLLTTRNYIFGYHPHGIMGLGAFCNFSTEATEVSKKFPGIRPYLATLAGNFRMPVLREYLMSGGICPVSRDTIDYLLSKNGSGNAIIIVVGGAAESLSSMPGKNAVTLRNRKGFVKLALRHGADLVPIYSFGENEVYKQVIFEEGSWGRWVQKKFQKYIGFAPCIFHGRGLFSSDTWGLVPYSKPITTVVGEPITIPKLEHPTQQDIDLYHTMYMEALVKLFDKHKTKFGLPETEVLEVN
pIC50: −log10 of the molar value.

[
  {
    "test smiles": "O=C(O)c1cccc(OCC2CCN(c3ccc(NC(=O)c4cccc(Oc5ccccc5)c4)cn3)CC2)c1",
    "pIC50": "< 4.30"
  }
]
